Tested on: LOX IMVI melanoma
Test: NCI-60 one-dose screen, 48 h
Details: 10 µM unless noted
Compounds without any hit were thinned out: in the full panel of roughly 83,000, 20% have a hit. Active and inactive are the calls of the source. How the source made its calls: active means growth percent below 10; inactive means the rest.
The categories you may choose from are active, inactive

CN1C(=O)/C(=C/c2ccc(C(=O)Nc3ncc(Cc4cc(Cl)ccc4Cl)s3)cc2)SC1=S	inactive
C=CC(=O)Nc1cccc(Oc2nccc(Nc3nnc(-c4ccc(Br)cc4)s3)n2)c1	inactive
COc1cc(-c2ccc(-c3ccc(C(=N)N)cc3)s2)cc(OC)c1OC	inactive

Input line: How did this test come out for "Nc1c(Cl)cc(/C=C2\C=Cc3ccccc32)cc1Cl" ?
Output line: inactive

Input line: How did this test come out for "O=C1/C(=C/c2ccccn2)SC(=S)N1N1CCOCC1" ?
Output line: inactive

====

Test system: MCF7 breast
Assay: NCI-60 one-dose screen, 48 h
Conditions: 10 µM unless noted
Compounds without any hit were thinned out: in the full panel of roughly 83,000, 20% have a hit. The source made the active and inactive calls. Rule for the calls: active = growth percent below 10; inactive = the rest.
The categories you may choose from are YES = active, NO = inactive

Nc1cc(C(=O)O)cc(-n2c(O)c(C=C3N=c4ccccc4=N3)sc2=S)c1	NO
C#CCOc1cccc(Nc2ncnc3c2ncn3C2CCN(C(=O)CCl)C2)c1 (configuration not stated)	YES
CCCCCCCCCCOC(=O)c1nn(C(C)=O)c2cc(C)c(C)cc12	NO
Cn1cc(-c2csc(-c3cn(C)c4ccccc34)n2)c2cnccc21	NO
C#CCOc1cccc(Nc2ncnc3cc(NC(=O)CCl)ccc23)c1	YES

Input line: How did this test come out for "O=[N+]([O-])c1c(O)c(Cl)cc(Cl)c1Cl" ?
Output line: NO

Input line: How did this test come out for "N=C(N)c1ccc(-c2ccc(-c3ccccc3)o2)o1" ?
Output line: NO

Input line: How did this test come out for COc1cc2c(c(OC)c1OC)C(=O)CC(c1cccc(C(=O)Nc3ccc(C#N)cc3)c1)O2 (configuration not stated) ?
Output line: NO

Input line: How did this test come out for N#CC1=C(N)Oc2c(sc3c(F)cccc23)C1c1ccc([N+](=O)[O-])cc1 (configuration not stated) ?
Output line: YES

Input line: How did this test come out for "CN(C)c1ccc(/C=N\NC(=O)c2ccc3nc(-c4ccc(Cl)cc4)[nH]c3c2)cc1" ?
Output line: NO

Input line: How did this test come out for "COc1ccc2c(c1)oc1c(C)c3c(c(C)c12)C(=O)N(CCOS(C)(=O)=O)C3=O" ?
Output line: NO

Input line: How did this test come out for "C#Cc1cccc(Nc2ncnc3cc(NC(=O)CCl)ccc23)c1" ?
Output line: YES

Input line: How did this test come out for "COC(=O)c1ccc2cc(OC)c(OC)cc2c1" ?
Output line: NO

Input line: How did this test come out for "Cn1c(=O)[nH]c(=O)c2nc3c(nc21)-c1ccccc1C3=O" ?
Output line: NO

Input line: How did this test come out for "N#C/C(=C\c1ccc(-c2cccc(Cl)c2)o1)C(=O)Nc1ncc(Cc2ccc(Cl)cc2)s1" ?
Output line: NO

Input line: How did this test come out for "COc1ccc(CNc2ccc3nc(NC(=O)CN4CCCCCC4)sc3c2)cc1" ?
Output line: NO

Input line: How did this test come out for "CCOC(=O)NC(=S)n1oc(=O)c2ccccc21" ?
Output line: NO

Taken from PubChem BioAssay (NCI).
